Just for reference, patent US20250186437A1 is where these values come from.

system: MOLM-13 cells; assay: MOLM-13 Cell Proliferation Assay (indicator of DHODH inhibition); assay type: cell-based; settings: Homo sapiens, 72 Hours of culture, CellTiter-Glo, no uridine
Simple rule here: IC50 less than 5 nM is t, otherwise f.

API: query returns whether the compound falls strictly under 5 nM in IC50. Query: Nc1cc(Cl)cc2c3c([nH]c12)C(c1cnc(N2CCOCC2)nc1)N(c1nccc(C(F)(F)F)n1)CC3 (stereo not shown) [Compound 310]
t

API: query returns whether the compound falls strictly under 5 nM in IC50. Query: Cc1ccc([C@H]2c3[nH]c4ccc(Cl)cc4c3CCN2c2nc(CF)nc(C(F)(F)F)n2)c(F)c1F [Compound 526]
t

API: query returns whether the compound falls strictly under 5 nM in IC50. Query: Cc1nc(C)nc(N2CCc3c([nH]c4ccc(Cl)cc34)C2c2ccc(Cl)cc2)n1 (stereo not shown) [Compound 449]
f

API: query returns whether the compound falls strictly under 5 nM in IC50. Query: FC(F)(F)c1cnc(N2CCc3c([nH]c4ccc(Cl)cc34)C2c2cnc(N3CCOCC3)nc2)nn1 (stereo not shown) [Compound 458]
t

API: query returns whether the compound falls strictly under 5 nM in IC50. Query: Fc1ccc(C2c3[nH]c4ccc(Cl)c(F)c4c3CCN2c2nccc(C(F)(F)F)n2)c(F)n1 (stereo not shown) [Compound 186]
t

API: query returns whether the compound falls strictly under 5 nM in IC50. Query: Cc1ccc(C2c3[nH]c4ccc(Cl)cc4c3CCN2c2nc(C)cc(C(F)(F)F)n2)cc1 (stereo not shown) [Compound 361]
t

API: query returns whether the compound falls strictly under 5 nM in IC50. Query: Fc1cc(N2CCOCC2)ccc1C1c2[nH]c3ccc(Cl)cc3c2CCN1c1nccc(C(F)(F)F)n1 (stereo not shown) [Compound 277]
f

----------
Give measured IC50 for each item. Keep answers brief.
test system: MOLM-13 cells; experiment: MOLM-13 Uridine Rescue Assay; type: cell-based; details: Homo sapiens; MOLM-13 cell proliferation with 100 μM Uridine added, 72 Hours of culture
Respond with the bare value in µM.

Which value of IC50 has been reported for `Cc1ccc([C@H]2c3[nH]c4ccc(Cl)cc4c3CCN2c2ncnc(C(F)(F)F)n2)cc1` in the records?
14.9

Which value of IC50 has been reported for `FC(F)(F)c1ncnc(N2CCc3c([nH]c4ccc(Cl)cc34)[C@@H]2c2ccc(N3CCOCC3)nc2)n1` in the records?
13.6

Which value of IC50 has been reported for Cc1ccc(C2c3[nH]c4ccc(Cl)c(F)c4c3CCN2c2nccc(C(F)(F)F)n2)c(F)c1F (stereo not shown) in the records?
17.5

Which value of IC50 has been reported for Cc1ccc(C2c3[nH]c4ccc(Cl)cc4c3CCN2c2nc(C)cc(C(F)(F)F)n2)cc1 (stereo not shown) in the records?
22.1

----------
system: MOLM-13 cells; assay: MOLM-13 Cell Proliferation Assay (indicator of DHODH inhibition); assay type: cell-based; details: Homo sapiens, 72 Hours of culture, CellTiter-Glo, no uridine
PARAMETER: pIC50
The meaning of pIC50 here: minus log10 of the concentration in molar units.

Which value of pIC50 has been reported for Cc1ccc(C2c3[nH]c4ccc(Cl)cc4c3CCN2c2ncnc(C)n2)cc1 (stereo not drawn) [Compound 322] in the records?
7.59

Which value of pIC50 has been reported for N#Cc1ccc(C2c3[nH]c4cc(F)c(Cl)cc4c3CCN2c2nccc(Br)n2)cc1 (stereo not drawn) [Compound 69] in the records?
7.97

Which value of pIC50 has been reported for Cc1ccc(C2c3[nH]c4ccc(Cl)cc4c3CCN2c2nccc(C(F)(F)F)n2)cc1O (stereo not drawn) [Compound 258] in the records?
7.55

Which value of pIC50 has been reported for CN(C)c1ncc(C2c3[nH]c4ccc(Cl)c(F)c4c3CCN2c2nccc(C(F)(F)F)n2)cc1F (stereo not drawn) [Compound 160] in the records?
8.46

Which value of pIC50 has been reported for Fc1ccc(C2c3[nH]c4ccc(F)c(F)c4c3CCN2c2ncc(Cl)cn2)cc1 (stereo not drawn) [Compound 85] in the records?
6.79

Which value of pIC50 has been reported for Cc1nc(N2CCc3c([nH]c4ccc(Cl)cc34)C2c2cnc(N3CCOCC3)nc2)ncc1F (stereo not drawn) [Compound 366] in the records?
8.00

Which value of pIC50 has been reported for Nc1c(Cl)ccc2[nH]c3c(c12)CCN(c1nccc(C(F)(F)F)n1)C3c1cnc(N2CCOCC2)nc1 (stereo not drawn) [Compound 328] in the records?
8.54

Which value of pIC50 has been reported for FC(F)(F)c1cc(C(F)(F)F)nc(N2CCc3c([nH]c4ccc(Cl)cc34)[C@@H]2c2ccc(N3CCOCC3)nc2)n1 [Compound 409] in the records?
9.70

Which value of pIC50 has been reported for Cc1nc(N2CCOCC2)nc(N2CCc3c([nH]c4ccc(Cl)cc34)C2c2cnc(N3CCOCC3)nc2)n1 (stereo not drawn) [Compound 296] in the records?
7.79

Which value of pIC50 has been reported for Cc1nc(C)nc(N2CCc3c([nH]c4ccc(Cl)cc34)C2c2ccc(N3CCOCC3)c(F)c2F)n1 (stereo not drawn) [Compound 284] in the records?
7.89

Which value of pIC50 has been reported for Cc1ccc(C2c3[nH]c4ccc(Cl)c(F)c4c3CCN2c2nc(C#N)cc(C#N)n2)c(F)c1F (stereo not drawn) [Compound 229] in the records?
8.72

Which value of pIC50 has been reported for O=C(O)COCCNc1ncc([C@H]2c3[nH]c4ccc(Cl)cc4c3CCN2c2nc(C(F)(F)F)nc(C(F)(F)F)n2)cn1 [Compound 539] in the records?
7.92

Which value of pIC50 has been reported for FC(F)(F)c1ccnc(N2CCc3c([nH]c4ccc(Cl)cc34)[C@@H]2c2cnc(N3CCOCC3)nc2)n1 [Compound 408] in the records?
8.92

Which value of pIC50 has been reported for Cc1ccnc(N2CCc3c([nH]c4ccc(Cl)cc34)[C@H]2c2ccc(C)c(F)c2F)n1 [Compound 185] in the records?
7.79

Which value of pIC50 has been reported for Cc1ccc(C2c3[nH]c4cc(F)c(Cl)cc4c3CCN2c2nc(C)c(C)c(C)n2)c(F)c1F (stereo not drawn) [Compound 169] in the records?
8.66

----------
test system: MOLM-13 cells; assay: MOLM-13 Cell Proliferation Assay (indicator of DHODH inhibition); type: cell-based; details: Homo sapiens, 72 Hours of culture, CellTiter-Glo, no uridine
pIC50: −log10 of the molar value.
Mark NO for pIC50 values under 8, and YES for everything at or above.

Is it the case that `Cc1ccc([C@H]2c3[nH]c4ccc([N+](=O)[O-])cc4c3CCN2c2nc(C(F)(F)F)nc(C(F)(F)F)n2)c(F)c1F` has pIC50 reaching or exceeding 8?
YES

Is it the case that Cc1ccc(C2c3[nH]c4cc(N)c(Cl)cc4c3CCN2c2nccc(C(F)(F)F)n2)c(F)c1F (stereo not drawn) has pIC50 reaching or exceeding 8?
NO

Is it the case that Fc1cncc(C2c3[nH]c4cc(F)c(Cl)cc4c3CCN2c2nccc(C(F)(F)F)n2)c1 (stereo not drawn) has pIC50 reaching or exceeding 8?
NO

Is it the case that Cc1nc(N(C)C)nc(N2CCc3c([nH]c4ccc(Cl)cc34)C2c2cnc(N3CCOCC3)nc2)n1 (stereo not drawn) has pIC50 reaching or exceeding 8?
NO

Is it the case that `CN1CCN(c2ccc([C@H]3c4[nH]c5ccc(Cl)cc5c4CCN3c3nc(C(F)(F)F)cc(C(F)(F)F)n3)cn2)CC1` has pIC50 reaching or exceeding 8?
YES

Is it the case that Fc1c(Cl)ccc2[nH]c3c(c12)CCN(c1ncc(Cl)cn1)C3c1ccc(C(F)(F)F)cc1 (stereo not drawn) has pIC50 reaching or exceeding 8?
NO

Is it the case that Fc1ncccc1C1c2[nH]c3ccc(Cl)c(F)c3c2CCN1c1nccc(C(F)(F)F)n1 (stereo not drawn) has pIC50 reaching or exceeding 8?
NO

Is it the case that `Cc1ccc([C@H]2c3[nH]c4ccc(Cl)cc4c3CCN2c2ncc(F)cn2)c(F)c1F` has pIC50 reaching or exceeding 8?
YES

Is it the case that Fc1cc2[nH]c3c(c2cc1Cl)CCN(c1nccc(C(F)(F)F)n1)C3c1ccc(Br)c(F)c1F (stereo not drawn) has pIC50 reaching or exceeding 8?
YES

Is it the case that `Cc1ccc([C@H]2c3[nH]c4ccc(Cl)cc4c3CCN2c2ncc(Br)cn2)c(F)c1F` has pIC50 reaching or exceeding 8?
YES

Is it the case that `Cc1ccc([C@H]2c3[nH]c4ccc(Cl)cc4c3CCN2c2nccc(C(F)(F)F)n2)cc1` has pIC50 reaching or exceeding 8?
YES

Is it the case that Cc1ccc(C2c3[nH]c4ccc(Cl)cc4c3CCN2c2nccc(C(F)(F)F)n2)cc1F (stereo not drawn) has pIC50 reaching or exceeding 8?
YES

Is it the case that Cc1cc(C)nc(N2CCc3c([nH]c4cc(F)c(Cl)cc34)C2c2ccc(CCCCO)cc2)n1 (stereo not drawn) has pIC50 reaching or exceeding 8?
YES

Is it the case that Cc1ccc(C2c3[nH]c4ccc(Cl)cc4c3CCN2c2nc(C(F)(F)F)cc(C(F)(F)F)n2)cc1 (stereo not drawn) has pIC50 reaching or exceeding 8?
YES

Is it the case that Cc1ccc(C2c3[nH]c4ccc(Cl)cc4c3CCN2c2nncc(C(F)(F)F)n2)cc1 (stereo not drawn) has pIC50 reaching or exceeding 8?
YES

Is it the case that Cc1nc(C)nc(N2CCc3c([nH]c4ccc(Cl)c(N)c34)C2c2cnc(N3CCOCC3)nc2)n1 (stereo not drawn) has pIC50 reaching or exceeding 8?
NO

Is it the case that Cc1ccnc(N2CCc3c([nH]c4c(N)cc(Cl)cc34)C2c2ccc(N3CCOCC3)nc2)n1 (stereo not drawn) has pIC50 reaching or exceeding 8?
YES

Is it the case that Cc1cc(C(F)(F)F)nc(N2CCc3c([nH]c4cc(F)c(Cl)cc34)C2c2ccc(C#N)cc2)n1 (stereo not drawn) has pIC50 reaching or exceeding 8?
YES

Is it the case that `Cc1ccc([C@H]2c3[nH]c4ccc(Cl)cc4c3CCN2c2nc(C)nc(C(F)(F)F)n2)cc1` has pIC50 reaching or exceeding 8?
YES

Is it the case that `CN1CCN(c2ncc([C@H]3c4[nH]c5ccc(-n6nccn6)cc5c4CCN3c3nc(C(F)(F)F)nc(C(F)(F)F)n3)cn2)CC1` has pIC50 reaching or exceeding 8?
YES

Is it the case that Cc1ccnc(N2CCc3c([nH]c4ccc(Cl)c(F)c34)C2c2ccc(C)c(F)c2F)n1 (stereo not drawn) has pIC50 reaching or exceeding 8?
YES

Is it the case that Cc1nc(C)nc(N2CCc3c([nH]c4ccc(Cl)cc34)C2c2ccc(N3C[C@@H]4C[C@H]3CO4)nc2)n1 (stereo partly drawn) has pIC50 reaching or exceeding 8?
NO
